# Experimental System: Rap guanine nucleotide exchange factor 3 (Homo sapiens)
# Experimental Details: Counterscreen qHTS for agonist of cAMP-regulated guanine nucleotide exchange factor 3 (EPAC1) (AID 1645889); also: % of control where 0% means no effect; nearly all actives have a fitted effect of over 40% in size
# Condition Description: EPAC1 Rap1B-BODIPY-GDP exchange, fluorescence; series mostly up to 154 µM
Results filed as inconclusive are left out. Activity calls are given as the source filed them. Calls follow the shape of the dose curve; as a rule, active = well fitted activation curve with a large enough effect; inconclusive = small, poorly fitted or top-dose-only effect, or another doubt; inactive = no such curve, though single readings can be large or run the other way.
Observable: activation

Compound: N#Cc1c(-c2ccccc2)nc(SCC(=O)N2c3ccccc3Sc3ccccc32)[nH]c1=O
activation: inactive
--
Compound: NC(=O)c1sc(=S)n2c1[nH]c(=O)c1sccc12
activation: inactive
--
Compound: COc1cc(O)cc(O)c1C(=O)/C=C/c1ccccc1
activation: inactive
--
Compound: COc1ccc(Br)cc1CNC(=O)c1ccc2nc(C(C)C)oc2c1
activation: inactive
--
Compound: CC1(C)CC(=O)C2=C(C1)c1c(ccc3ccccc13)NC2c1cc([N+](=O)[O-])cc([N+](=O)[O-])c1O (stereo not given)
activation: inactive

QUERY: Find the measured activation: item COc1ccc(/C=C(/NC(=O)c2ccccc2)C(=O)N/N=C/c2ccncc2)c(OC)c1 , target or system Rap guanine nucleotide exchange factor 3 (Homo sapiens).
RESULT: 12.1% [at 30.8 µM] (inactive)

QUERY: What value of activation on Rap guanine nucleotide exchange factor 3 (Homo sapiens) does COc1ccc(C(=O)N2CCc3cc(OC)c(OC)cc3C2c2ccc(OC)c(OC)c2)cc1 (stereo not given) have?
RESULT: 15.1% [at 30.8 µM] (inactive)

QUERY: Form field: activation recorded for COc1ccc(-c2oc3cccnc3c2C#CCO)cc1 with Rap guanine nucleotide exchange factor 3 (Homo sapiens) (enter value)
RESULT: inactive

QUERY: Lab request: please report activation under test system Rap guanine nucleotide exchange factor 3 (Homo sapiens) for COc1ccc(OC)c(NC(=O)Cc2c(C(=O)O)n(C)c3ccc(C)cc23)c1
RESULT: inactive

QUERY: For the record Oc1ccc(NCc2ccccc2OCc2ccccc2)cc1 , what value of activation is listed for Rap guanine nucleotide exchange factor 3 (Homo sapiens)?
RESULT: 20.2% [at 30.8 µM] (inactive)
